Below, each entry is listed with its recorded Emax.
measuredOn: K18PL tau (Homo sapiens, UniProt P10636, P618L)
Construct: (K18PL; amino acids 244-369); made in house
Sequence (P10636 561-686 P618L): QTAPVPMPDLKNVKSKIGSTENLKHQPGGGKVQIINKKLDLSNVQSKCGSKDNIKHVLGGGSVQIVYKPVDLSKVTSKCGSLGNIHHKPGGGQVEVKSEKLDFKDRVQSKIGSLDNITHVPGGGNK
testDetails: Heparin-induced K18PL tau fibrillization assay monitored by ThT fluorescence
Assay type: biochemical
testConditions: Table 5; read-out: K18PL (ThT) maximal percent inhibition achieved in the assay
Answer in %, number only, no unit symbol.

Study these solved cases before continuing.
| chemSmiles | Emax (%) |
| --- | --- |
| CC(C)NC(=O)c1nn(-c2ccc(Br)cc2)c(=O)c2c(N)scc12 | 89 |
| CC(C)OC(=O)c1nn(-c2ccc(Cl)cc2)c(=O)c2c(N)scc12 | 81 |
| CNC(=O)c1nn(-c2ccc(Cl)cc2)c(=O)c2c(N)scc12 | 91 |
| CC(C)NC(=O)c1nn(-c2ccc(Cl)cc2)c(=O)c2c(N)scc12 | 88 |
| Nc1scc2c(C(=O)NC3CC3)nn(-c3ccc(Cl)cc3)c(=O)c12 | 87 |
| CCNC(=O)c1nn(-c2ccc(Cl)cc2)c(=O)c2c(N)scc12 | 91 |
| CCN(C)C(=O)c1nn(-c2ccc(Cl)cc2)c(=O)c2c(N)scc12 | 91 |
| Nc1scc2c(C(=O)O)nn(-c3ccc(Cl)cc3)c(=O)c12 | 87 |
| CN(C)C(=O)c1nn(-c2ccc(Cl)cc2)c(=O)c2c(N)scc12 | 88 |

# context switch: different compound, same Emax
In: K18PL tau (Homo sapiens, UniProt P10636, P618L) / Emax / `CCOC(=O)c1nn(-c2ccc(Cl)cc2)c(=O)c2c(N)scc12` : value?
Out: 71
